For each entry below, report its Neutralization IC50, H3-Perth09 value.
target.desc: HA of ca A/Perth/16/09 (H3N2) (influenza A virus)
experiment.notes: cell-based or functional assay

In: Which Neutralization IC50, H3-Perth09 is reported for this binder? Antibody 8 (antibody, V domains shown) VH: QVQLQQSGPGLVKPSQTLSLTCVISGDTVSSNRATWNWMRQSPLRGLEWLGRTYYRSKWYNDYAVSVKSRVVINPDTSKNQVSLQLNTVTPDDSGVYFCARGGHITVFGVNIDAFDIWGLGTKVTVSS VL: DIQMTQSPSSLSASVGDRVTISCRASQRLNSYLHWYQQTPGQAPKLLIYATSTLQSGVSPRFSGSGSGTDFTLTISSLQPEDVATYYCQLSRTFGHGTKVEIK
Out: > 50 µg/mL

In: Which Neutralization IC50, H3-Perth09 is reported for this binder? Antibody 6 (antibody, V domains shown) VH: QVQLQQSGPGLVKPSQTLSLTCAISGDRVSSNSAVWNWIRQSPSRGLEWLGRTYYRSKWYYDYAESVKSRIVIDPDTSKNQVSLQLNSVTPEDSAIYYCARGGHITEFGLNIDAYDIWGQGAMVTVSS VL: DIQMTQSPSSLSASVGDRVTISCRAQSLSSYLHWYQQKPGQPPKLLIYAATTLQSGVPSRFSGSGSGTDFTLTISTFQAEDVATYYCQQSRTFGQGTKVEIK
Out: 5.03 µg/mL

In: Which Neutralization IC50, H3-Perth09 is reported for this binder? Antibody 3 (antibody, V domains shown) VH: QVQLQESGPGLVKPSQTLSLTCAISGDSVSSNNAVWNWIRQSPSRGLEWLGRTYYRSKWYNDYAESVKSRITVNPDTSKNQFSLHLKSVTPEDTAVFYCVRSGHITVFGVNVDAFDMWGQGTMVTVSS VL: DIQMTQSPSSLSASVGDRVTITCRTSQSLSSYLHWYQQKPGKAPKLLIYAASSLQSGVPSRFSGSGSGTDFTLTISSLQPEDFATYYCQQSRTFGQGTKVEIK
Out: 1.49 µg/mL

In: Which Neutralization IC50, H3-Perth09 is reported for this binder? Antibody 5 (antibody, V domains shown) VH: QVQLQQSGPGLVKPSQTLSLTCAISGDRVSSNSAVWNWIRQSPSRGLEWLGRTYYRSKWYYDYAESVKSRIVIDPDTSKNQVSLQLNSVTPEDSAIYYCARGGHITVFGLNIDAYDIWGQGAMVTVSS VL: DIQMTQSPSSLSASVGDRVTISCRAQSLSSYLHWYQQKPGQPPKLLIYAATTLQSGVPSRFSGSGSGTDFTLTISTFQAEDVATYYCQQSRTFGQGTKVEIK
Out: 2.22 µg/mL

In: Which Neutralization IC50, H3-Perth09 is reported for this binder? Antibody 10 (antibody, V domains shown) VH: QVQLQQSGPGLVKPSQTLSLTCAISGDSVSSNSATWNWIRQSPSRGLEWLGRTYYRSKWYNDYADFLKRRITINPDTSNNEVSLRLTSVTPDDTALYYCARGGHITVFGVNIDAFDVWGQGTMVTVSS VL: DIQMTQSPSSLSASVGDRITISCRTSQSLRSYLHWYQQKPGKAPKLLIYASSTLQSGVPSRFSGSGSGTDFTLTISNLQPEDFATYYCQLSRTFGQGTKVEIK
Out: 2.56 µg/mL

Measured values drawn from patent US20160257732A1 for this set.
